target: GSK3B (Homo sapiens); assay: In vitro enzymatic activity assay, GSK3β; format: biochemical; parameters: Full length human GSK3α or GSK3B expressed as N-terminal GST fusion proteins; GST (N); purchased Carna Biosciences (Japan); host or cells: baculovirus host; details: 1.0 mM ATP, 1.0 μM peptide substrate, 120 min, 25° C, read-out: Enzyme GSK3β (IC50)
pIC50: −log10 of the molar value.
QUANTITY MEASURED: pIC50

In [3]: df
Out[3]:
                                   compound  endpoint_value
0  CCC[C@@H](N)c1cncc(NC(=O)c2c(N)ncn(-c3c(C)cc(OCC)cc3C)c2=O)c1 [Example 94]            6.22
1  COCc1cc(C)c(-n2cnc(N)c(C(=O)Nc3cncc([C@H]4CC[C@H](C)N4)c3)c2=O)c(C)c1 (single isomer, unassigned) [Example 103]            6.24
2  CCOCc1cc(C)c(-n2cnc(N)c(C(=O)Nc3cncc(C4CCCCCN4)c3)c2=O)c(C)c1 (single isomer, unassigned) [Example 132]            6.64
3  COc1cc(Cl)c(-n2cnc(N)c(C(=O)Nc3cncc(C(N)CC(F)F)c3)c2=O)c(Cl)c1 (single isomer, unassigned) [Example 82]            6.61
4  CNC(COC)c1cncc(NC(=O)c2c(N)ncn(-c3c(Cl)cc(C(F)(F)F)cc3Cl)c2=O)c1 (single isomer, unassigned) [Example 122]            6.49
5  CCOc1cc(Cl)c(-n2cnc(N)c(C(=O)Nc3cncc([C@@H](C)N)n3)c2=O)c(Cl)c1 (single isomer, unassigned) [Example 219]            6.57
6  COc1cc(Cl)c(-n2cnc(N)c(C(=O)Nc3cncc(C4(N)CC4)c3)c2=O)c(Cl)c1 [Example 181]            6.27
7  Cc1cc(C)c(-n2cnc(N)c(C(=O)Nc3cncc([C@H]4CCCCN4)c3)c2=O)c(C)c1 [Example 145]            6.89
8  Nc1ncn(-c2c(Cl)cccc2Cl)c(=O)c1C(=O)Nc1cncc([C@H]2CCOCCN2)c1 (single isomer, unassigned) [Example 215]            6.30
9  COc1cc(Cl)c(-n2cnc(N)c(C(=O)Nc3cc(F)cc([C@H]4CCCCN4)c3)c2=O)c(Cl)c1 (single isomer, unassigned) [Example 222]            7.00

P: COc1cc(Cl)c(-n2cnc(N)c(C(=O)Nc3cncc(C(N)CC(F)F)c3)c2=O)c(Cl)c1 (single isomer, unassigned) [Example 85]
Q: CCNCc1cncc(NC(=O)c2c(N)ncn(-c3c(Cl)cc(OC)cc3Cl)c2=O)c1 [Example 17]
Query string: Task for the reader: decide whether P or Q has the larger pIC50. Identify your selection by its label.
Result string: Q

###

Target: GSK3A (Homo sapiens)
Sequence (P49840 whole entry): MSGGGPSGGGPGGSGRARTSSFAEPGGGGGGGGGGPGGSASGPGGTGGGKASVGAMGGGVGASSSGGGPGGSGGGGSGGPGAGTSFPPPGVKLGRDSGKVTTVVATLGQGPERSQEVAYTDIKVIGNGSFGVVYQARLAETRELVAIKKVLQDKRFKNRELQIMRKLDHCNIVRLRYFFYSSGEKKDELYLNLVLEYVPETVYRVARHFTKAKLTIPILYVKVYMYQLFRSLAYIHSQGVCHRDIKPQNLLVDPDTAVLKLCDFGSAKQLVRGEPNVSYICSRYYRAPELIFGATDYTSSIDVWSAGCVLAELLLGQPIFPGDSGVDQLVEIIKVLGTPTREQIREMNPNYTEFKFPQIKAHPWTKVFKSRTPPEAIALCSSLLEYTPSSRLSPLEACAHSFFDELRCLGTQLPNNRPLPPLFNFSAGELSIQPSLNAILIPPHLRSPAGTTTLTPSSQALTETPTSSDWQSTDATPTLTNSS
Test: NanoBRET cellular target engagement assay, Nanoluc-GSK3A in HEK293 cells
Details: NanoBRET GSK3α IC50, HEK293 cells, tracer K-8, 2 hours, 37° C
Protocol: In the assay, HEK293 cells stably expressing either Nanoluc-GSK3A or Nanoluc-GSK3B were maintained in culture media and seeded, using a multidrop dispenser, at a density of 5×10^3 cells per well in 384-well white plates with 100 ng/ml doxycycline (Sigma) overnight. Compound was first diluted in DMSO to generate a 9-point serial dilution then diluted to 10× final concentration in Opti-MEM™ (Gibco). […]
QUANTITY MEASURED: IC50 (nM)

Sample records with IC50:
>>> df
                                   compound  quantity_measured  endpoint_value
0  CCOc1cc(Cl)c(-n2cnc(N)c(C(=O)Nc3cncc(C(C)N)c3)c2=O)c(Cl)c1 (single isomer, unassigned) [Example 137]               IC50             1.7
1  CN[C@H](C)c1cccc(NC(=O)c2c(N)ncn(-c3c(C)cc(C(F)(F)F)cc3Cl)c2=O)c1 (atropisomer, axis not shown) [Example 33]               IC50             8.3
2  CCOc1cc(C)c(-n2cnc(N)c(C(=O)Nc3cncc(C(C)N)c3)c2=O)c(C)c1 (single isomer, unassigned) [Example 104]               IC50             7.9
3  CCC[C@@H](N)c1cncc(NC(=O)c2c(N)ncn(-c3c(C)cc(COC)cc3C)c2=O)c1 [Example 176]               IC50             2.6
4  Nc1ncn(-c2c(Cl)cc(C(F)F)cc2Cl)c(=O)c1C(=O)Nc1cncc([C@@H]2CCCCN2)c1 [Example 56]               IC50             4.8

P: COCc1cc(Cl)c(-n2cnc(N)c(C(=O)Nc3cncc(CNCCO)c3)c2=O)c(Cl)c1 [Example 63]
Q: COCc1cc(Cl)c(-n2cnc(N)c(C(=O)Nc3cncc([C@@H](C)N)c3)c2=O)c(Cl)c1 (single isomer, unassigned) [Example 66]
Query string: # returns the entry with the larger IC50; inputs P and Q Indicate your choice by writing its label.
Result string: P

###

Biological target: UniProt P49841
Test: In vitro enzymatic activity assay, GSK3β
Type: biochemical
Parameters: Full length human GSK3α or GSK3B expressed as N-terminal GST fusion proteins; GST (N); purchased Carna Biosciences (Japan); host or cells: baculovirus host
Settings: 1.0 mM ATP, 1.0 μM peptide substrate, 120 min, 25° C, read-out: Enzyme GSK3β (IC50)
Experimental: Full length human GSK3α or GSK3B expressed as N-terminal GST fusion proteins in baculovirus host were purchased from Carna Biosciences (Japan). The kinase was pre-incubated with ATP (adenosine-5′-triphosphate) for 45 min, then incubated with tested compounds for another 45 min in assay buffer that contains 100 mM HEPES (N-2-hydroxyethylpiperazine-N′-2-ethanesulfonic acid), pH 7.5, 10 mM MgCl2, 1.0 mM DTT, and 0.015% Briji-35. […] IC50 value was determined from the 4-parameter logistic curve fitting.
QUANTITY MEASURED: IC50 (nM)

Guide cases for IC50, answers given:
>>> print(df.to_string())
                                   compound  assayed_system  endpoint_value
0  CC1CCC(c2cccc(NC(=O)c3c(N)ncn(-c4c(Cl)cccc4Cl)c3=O)c2)N1 (single isomer, unassigned) [Example 180]  UniProt P49841             298
1  COc1cc(Cl)c(-n2cnc(N)c(C(=O)Nc3cncc(C4COCCN4)c3)c2=O)c(Cl)c1 (single isomer, unassigned) [Example 212]  UniProt P49841             272

P: CCOc1cc(Cl)c(-n2cnc(N)c(C(=O)Nc3cncc(C(COC)NC)c3)c2=O)c(Cl)c1 (single isomer, unassigned) [Example 141]
Q: CNC(C)c1cncc(NC(=O)c2c(N)ncn(-c3c(Cl)cc(Cl)cc3Cl)c2=O)c1 (single isomer, unassigned) [Example 13]
R: Cc1cc(C)c(-n2cnc(N)c(C(=O)Nc3cncc(C(C)N)c3)c2=O)c(C)c1 (single isomer, unassigned) [Example 147]
Query string: Put the items in order so that reported IC50 rises from first to last. Use the labels to give the ranking in the order requested.
Result string: P, R, Q
(P: 232 nM, R: 392 nM, Q: 1010 nM)

###

target: GSK3B (Homo sapiens, UniProt P49841); assay: In vitro enzymatic activity assay, GSK3β; type: biochemical; set-up: Full length human GSK3α or GSK3B expressed as N-terminal GST fusion proteins; GST (N); purchased Carna Biosciences (Japan); host or cells: baculovirus host; settings: 1.0 mM ATP, 1.0 μM peptide substrate, 120 min, 25° C, read-out: Enzyme GSK3β (IC50)
Sequence (P49841 whole entry, the tested form may be a part): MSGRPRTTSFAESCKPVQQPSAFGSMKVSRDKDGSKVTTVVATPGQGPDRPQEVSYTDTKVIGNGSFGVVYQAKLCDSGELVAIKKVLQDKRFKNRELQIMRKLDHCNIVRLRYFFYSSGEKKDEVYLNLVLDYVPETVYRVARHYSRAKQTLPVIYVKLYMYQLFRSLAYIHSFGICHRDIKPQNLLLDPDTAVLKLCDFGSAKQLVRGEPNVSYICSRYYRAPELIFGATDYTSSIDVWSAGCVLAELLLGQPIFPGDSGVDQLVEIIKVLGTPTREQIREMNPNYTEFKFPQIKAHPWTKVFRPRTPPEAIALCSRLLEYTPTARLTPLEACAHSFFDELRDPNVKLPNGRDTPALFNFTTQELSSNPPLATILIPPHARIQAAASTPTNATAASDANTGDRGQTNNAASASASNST
QUANTITY MEASURED: IC50 (nM)

                                   molecule  endpoint_value
0  Cc1cc(C(F)CF)cc(C)c1-n1cnc(N)c(C(=O)Nc2cncc(C(C)N)c2)c1=O (single isomer, unassigned)             507
1  CCc1cc(C)c(-n2cnc(N)c(C(=O)Nc3cncc([C@@H](C)N)c3)c2=O)c(C)c1 (single isomer, unassigned)             421
2  Cc1cc(CCF)cc(C)c1-n1cnc(N)c(C(=O)Nc2cncc(C(C)N)c2)c1=O (single isomer, unassigned)             374

###

Molecular target: GSK3B (Homo sapiens, UniProt P49841)
Assay: In vitro enzymatic activity assay, GSK3β
Type: biochemical
Design: Full length human GSK3α or GSK3B expressed as N-terminal GST fusion proteins; GST (N); purchased Carna Biosciences (Japan); host or cells: baculovirus host
Conditions: 1.0 mM ATP, 1.0 μM peptide substrate, 120 min, 25° C, read-out: Enzyme GSK3β (IC50)
Experimental: Full length human GSK3α or GSK3B expressed as N-terminal GST fusion proteins in baculovirus host were purchased from Carna Biosciences (Japan). The kinase was pre-incubated with ATP (adenosine-5′-triphosphate) for 45 min, then incubated with tested compounds for another 45 min in assay buffer that contains 100 mM HEPES (N-2-hydroxyethylpiperazine-N′-2-ethanesulfonic acid), pH 7.5, 10 mM MgCl2, 1.0 mM DTT, and 0.015% Briji-35. […] IC50 value was determined from the 4-parameter logistic curve fitting.
QUANTITY MEASURED: IC50 (µM)

>>> print(df.to_string())
                                   compound                        assayed_system  units_label  endpoint_value
0  Cc1cc(C(F)F)cc(C)c1-n1cnc(N)c(C(=O)Nc2cncc([C@H]3CCC[C@H](C)N3)c2)c1=O (single isomer, unassigned) [Example 108]  GSK3B (Homo sapiens, UniProt P49841)           µM           0.998

A: COCC(N)c1cncc(NC(=O)c2c(N)ncn(-c3c(Cl)cc(Cl)cc3Cl)c2=O)c1 (single isomer, unassigned) [Example 49]
B: COc1cc(Cl)c(-n2cnc(N)c(C(=O)Nc3cncc([C@@H]4NC[C@H]5CCC[C@H]54)c3)c2=O)c(Cl)c1 (single isomer, unassigned) [Example 32]
Query string: # compare IC50 for A vs B ; return the one with the smaller value Answer by stating the label of the chosen item.
Result string: A
